Answer each item with its documented inhibition at 20 µg/mL.
- Test system: B-16 mouse melanoma cells
- Test Method Notes: Measurement of melanin generation inhibitory effects in cultured melanoma cells
- Assay type: cell-based
- Test Conditions: Mus musculus, 72 h; concentration 20 μg/ml; cultured 3 days; relative to control; read-out: Inhibition rate (melanin generation)
// note: answer is a bare numeric in %

Given CCCCC(CC)C(=O)Oc1cc(OC(=O)C(CC)CCCC)c2c(=O)c(OC(=O)C(CC)CCCC)c(-c3ccccc3)oc2c1 (stereo not shown) , state its recorded inhibition at 20 µg/mL.
63

Same thing, different molecule: CCCCC(CC)C(=O)Oc1cccc(OC(=O)C(CC)CCCC)c1 (stereo not shown)
79

Same thing, different molecule: "CC(C)=CC(=O)Oc1cccc(OC(=O)C=C(C)C)c1"
83

Same thing, different molecule: "CCCCCCCCCCCC(=O)Oc1cccc(OC(=O)CCCCCCCCCCC)c1"
43

Same thing, different molecule: CCCCC(CC)C(=O)Oc1ccc(-c2oc3cc(OC(=O)C(CC)CCCC)cc(OC(=O)C(CC)CCCC)c3c(=O)c2OC(=O)C(CC)CCCC)cc1 (stereo not shown)
69

Same thing, different molecule: CCCCC(CC)C(=O)Oc1cc(C=Cc2ccc(OC(=O)C(CC)CCCC)c(OC(=O)C(CC)CCCC)c2)cc(OC(=O)C(CC)CCCC)c1 (stereo not shown)
72

Same thing, different molecule: CCCCC(CC)C(=O)Oc1ccc(-c2cc(=O)c3c(OC(=O)C(CC)CCCC)cc(OC(=O)C(CC)CCCC)cc3o2)cc1 (stereo not shown)
57

---

Answer each item with its documented inhibition at 20 µg/mL.
- System: B-16 mouse melanoma cells
- Test Method Notes: Measurement of melanin generation inhibitory effects in cultured melanoma cells
- Type: cell-based
- Test Conditions: Mus musculus, 72 h; concentration 20 μg/ml; cultured 3 days; relative to control; read-out: Inhibition rate (melanin generation)
// note: answer is a bare numeric in %

Given CCCCC(CC)C(=O)Oc1ccnc(OC(=O)C(CC)CCCC)c1 (stereo not drawn) [Material in Example 9, 2,4-bis-(2-ethylhexanoyloxy)-pyridine] , state its recorded inhibition at 20 µg/mL.
67

Same thing, different compound: CCCCC(CC)C(=O)Oc1cc(OC(=O)C(CC)CCCC)c2c(c1)OC(c1ccc(OC(=O)C(CC)CCCC)c(OC(=O)C(CC)CCCC)c1)C(OC(=O)C(CC)CCCC)C2 (stereo not drawn) [Material in Example 19]
69

Same thing, different compound: CCCC(=O)Oc1cccc(OC(=O)CCC)c1 [Material in Example 1, 1,3-bis-butyryloxy-benzene]
68

Same thing, different compound: CCCCCCCC(=O)Oc1cccc(OC(=O)CCCCCCC)c1 [Material in Example 4, 1,3-bis-octanoyloxy-benzene]
71

Same thing, different compound: CCCCC(CC)C(=O)Oc1cccc(OC(=O)C(CC)CCCC)c1OC(=O)C(CC)CCCC (stereo not drawn) [Material in Example 10, 1,2,3-tris-(2-ethylhexanoyloxy)-benzene]
65

Same thing, different compound: CCCCCCCCCC(=O)Oc1cccc(OC(=O)CCCCCCCCC)c1 [Material in Example 6, 1,3-bis-decanoyloxy-benzene]
53

Same thing, different compound: CCCCC(CC)C(=O)Oc1ccc(C2CC(=O)c3c(OC(=O)C(CC)CCCC)cc(OC(=O)C(CC)CCCC)cc3O2)cc1 (stereo not drawn) [Material in Example 16]
59

Same thing, different compound: CCCCC(CC)C(=O)Oc1cc2oc(-c3ccccc3)cc(=O)c2c(OC(=O)C(CC)CCCC)c1OC(=O)C(CC)CCCC (stereo not drawn) [Material in Example 15, 5,6,7-tris-(2-ethylhexanoyloxy)-flavone]
72

Same thing, different compound: CCCCC(=O)Oc1cccc(OC(=O)CCCC)c1 [Material in Example 2, 1,3-bis-pentanoyloxy-benzene]
85

Same thing, different compound: CCCCC(CC)C(=O)Oc1cc(OC(=O)C(CC)CCCC)c2ccccc2c1 (stereo not drawn) [Material in Example 8, 1,3-bis-(2-ethylhexanoyloxy)-naphthalene]
63

Same thing, different compound: CCCCC(CC)C(=O)Oc1ccc(-c2coc3cc(OC(=O)C(CC)CCCC)cc(OC(=O)C(CC)CCCC)c3c2=O)cc1 (stereo not drawn) [Material in Example 12]
65

Same thing, different compound: CCCCC(CC)C(=O)Oc1ccc(C=Cc2cc(OC(=O)C(CC)CCCC)cc(OC(=O)C(CC)CCCC)c2)cc1 (stereo not drawn) [Material in Example 11]
54

---

- System: B-16 mouse melanoma cells
- Test Method Notes: Measurement of melanin generation inhibitory effects in cultured melanoma cells
- Type: cell-based
- Test Conditions: Mus musculus, 72 h; concentration 5 μg/ml; cultured 3 days; relative to control; read-out: Inhibition rate (melanin generation)
Value Type: inhibition at 5 µg/mL

Given CCCCC(CC)C(=O)Oc1ccc(-c2coc3cc(OC(=O)C(CC)CCCC)cc(OC(=O)C(CC)CCCC)c3c2=O)cc1 (stereo not shown) , state its recorded inhibition at 5 µg/mL.
35%

Same thing, different compound: CCCCC(CC)C(=O)Oc1cc(C=Cc2ccc(OC(=O)C(CC)CCCC)c(OC(=O)C(CC)CCCC)c2)cc(OC(=O)C(CC)CCCC)c1 (stereo not shown)
47%

Same thing, different compound: CCCCC(CC)C(=O)Oc1cccc(OC(=O)C(CC)CCCC)c1OC(=O)C(CC)CCCC (stereo not shown)
38%

Same thing, different compound: "CC(C)=CC(=O)Oc1cccc(OC(=O)C=C(C)C)c1"
53%

Same thing, different compound: CCCCC(CC)C(=O)Oc1cc(OC(=O)C(CC)CCCC)c2c(c1)OC(c1ccc(OC(=O)C(CC)CCCC)c(OC(=O)C(CC)CCCC)c1)C(OC(=O)C(CC)CCCC)C2 (stereo not shown)
39%

Same thing, different compound: CCCCC(CC)C(=O)Oc1ccnc(OC(=O)C(CC)CCCC)c1 (stereo not shown)
41%

Same thing, different compound: CCCCC(CC)C(=O)Oc1cc2oc(-c3ccccc3)cc(=O)c2c(OC(=O)C(CC)CCCC)c1OC(=O)C(CC)CCCC (stereo not shown)
39%

---

- Tested on: B-16 mouse melanoma cells
- Test Method Notes: Measurement of melanin generation inhibitory effects in cultured melanoma cells
- Type: cell-based
- Test Conditions: Mus musculus, 72 h; concentration 5 μg/ml; cultured 3 days; relative to control; read-out: Inhibition rate (melanin generation)
Answer each item with its documented inhibition at 5 µg/mL.

Given "CCCCC(=O)Oc1cccc(OC(=O)CCCC)c1" , state its recorded inhibition at 5 µg/mL.
52%

Same thing, different compound: CCCCC(CC)C(=O)Oc1ccc(C=Cc2cc(OC(=O)C(CC)CCCC)cc(OC(=O)C(CC)CCCC)c2)cc1 (stereo not drawn)
31%

Same thing, different compound: CCCCC(CC)C(=O)Oc1cc(OC(=O)C(CC)CCCC)c2c(=O)c(OC(=O)C(CC)CCCC)c(-c3ccccc3)oc2c1 (stereo not drawn)
30%

Same thing, different compound: CCCCC(CC)C(=O)Oc1cccc(OC(=O)C(CC)CCCC)c1 (stereo not drawn)
45%

Same thing, different compound: "CCCCCCCCCCCC(=O)Oc1cccc(OC(=O)CCCCCCCCCCC)c1"
21%

Same thing, different compound: CCCCC(CC)C(=O)Oc1cc(OC(=O)C(CC)CCCC)c2ccccc2c1 (stereo not drawn)
35%

Same thing, different compound: CCCCC(CC)C(=O)Oc1ccc(-c2oc3cc(OC(=O)C(CC)CCCC)cc(OC(=O)C(CC)CCCC)c3c(=O)c2OC(=O)C(CC)CCCC)cc1 (stereo not drawn)
32%

Same thing, different compound: "CCCCCCCCCC(=O)Oc1cccc(OC(=O)CCCCCCCCC)c1"
32%

Same thing, different compound: "CCCCCCCC(=O)Oc1cccc(OC(=O)CCCCCCC)c1"
41%

Same thing, different compound: CCCCC(CC)C(=O)Oc1ccc(-c2cc(=O)c3c(OC(=O)C(CC)CCCC)cc(OC(=O)C(CC)CCCC)cc3o2)cc1 (stereo not drawn)
31%

Same thing, different compound: "CCCC(=O)Oc1cccc(OC(=O)CCC)c1"
43%

Same thing, different compound: CCCCC(CC)C(=O)Oc1ccc(C2CC(=O)c3c(OC(=O)C(CC)CCCC)cc(OC(=O)C(CC)CCCC)cc3O2)cc1 (stereo not drawn)
41%

The reported measurements were obtained from patent US20150283051A1.
